Target: MSI1 RRM12 (human, UniProt O43347 20-191)
Sequence (O43347 20-191): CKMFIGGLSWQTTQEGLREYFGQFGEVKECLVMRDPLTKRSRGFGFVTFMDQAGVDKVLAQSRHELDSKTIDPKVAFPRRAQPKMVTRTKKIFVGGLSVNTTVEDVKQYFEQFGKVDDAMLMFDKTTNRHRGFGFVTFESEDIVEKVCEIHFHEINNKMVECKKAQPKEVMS
Test: ITC; 3 mM MgCl2; ITC: 20 mM HEPES pH 7.5, 150 mM NaCl, 3 mM MgCl2, 25 C; […]
Settings: protein: recombinant; tags: GST tag (pGEX-6p-1) removed by PreScission; three-way junction with P4 and pseudoknots
reported_property: Kd (nM)
Give your result in nM as a bare value.

Prompt: Tell me Kd reported for ZIKV xrRNA2 (structured_RNA) RNA: GAUAGUCAGGCCGAGAACGCCAUGGCACGGAAGAAGCCAUGCUGCCUGUGAGCCCCUCAGAGGACACUGAGU
Completion: 1900
